The following compounds are listed with their measured IC50 values.
TARGET: Avi-KRAS G12V (2-169) GTP/RAF1 RBD-3xFLAG (51-131) (Homo sapiens, UniProt P01116, G12V)
Construct: Avi-KRAS G12V (2-169)
Sequence (P01116 2-169 isoform P01116-2 G12V): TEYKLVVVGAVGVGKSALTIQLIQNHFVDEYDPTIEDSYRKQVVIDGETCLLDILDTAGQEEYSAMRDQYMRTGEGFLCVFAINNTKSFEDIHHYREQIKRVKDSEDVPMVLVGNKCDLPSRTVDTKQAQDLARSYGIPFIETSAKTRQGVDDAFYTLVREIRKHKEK
TEST NAME: Raf1-KRAS G12V-GTP disruption HTRF assay (Biological Example 3)
Format: binding
TEST CONDITIONS: KRAS G12V, GTP-loaded

Recorded results for 3 compounds are shown here.
{"columns": ["COMPOUND", "TARGET", "OBSERVED"],
 "data": [
  ["CCN(c1nc(OC[C@@]23CCCN2C[C@H](F)C3)nc2c(F)c(-c3ccc(F)c4sc(N)c(C#N)c34)c(C(F)(F)F)cc12)[C@H]1CCN(C(=O)OC)C1 (atropisomer, axis not shown) [Compound 541]", "Avi-KRAS G12V (2-169) GTP/RAF1 RBD-3xFLAG (51-131) (Homo sapiens, UniProt P01116, G12V)", "≤ 100 nM"],
  ["CC(=O)N1CC[C@@H](N(C)c2nc(OC[C@@]34CCCN3C[C@H](F)C4)nc3c(F)c(-c4ccc(F)c5sc(N)c(C#N)c45)c(C(F)(F)F)cc23)[C@H]1C (single isomer, unassigned)", "Avi-KRAS G12V (2-169) GTP/RAF1 RBD-3xFLAG (51-131) (Homo sapiens, UniProt P01116, G12V)", "100 to 1000 nM"],
  ["CN(C)C(=O)N1CC[C@H](N(CCF)c2nc(OC[C@@]34CCCN3C[C@H](F)C4)nc3c(F)c(-c4ccc(F)c5sc(N)c(C#N)c45)c(C(F)(F)F)cc23)C1 (atropisomer, axis not shown)", "Avi-KRAS G12V (2-169) GTP/RAF1 RBD-3xFLAG (51-131) (Homo sapiens, UniProt P01116, G12V)", "100 to 1000 nM"]
]}

Reported IC50 for Avi-KRAS G12V (2-169) GTP/RAF1 RBD-3xFLAG (51-131) (Homo sapiens, UniProt P01116, G12V), given CCN(c1nc(OC[C@@]23CCCN2C[C@H](F)C3)nc2c(F)c(-c3ccc(F)c4sc(N)c(C#N)c34)c(C(F)(F)F)cc12)[C@H]1CCN(C(=O)c2ncc(C)s2)C1 (atropisomer, axis not shown) ?
100 to 1000 nM

Which IC50 is reported with Avi-KRAS G12V (2-169) GTP/RAF1 RBD-3xFLAG (51-131) (Homo sapiens, UniProt P01116, G12V) for this entry: N#Cc1c(N)sc2c(F)ccc(-c3c(C(F)(F)F)cc4c(N5C[C@H]6C[C@@H]5CO6)nc(OC[C@@]56CCCN5C[C@H](F)C6)nc4c3F)c12 [Compound 253] ?
1000 to 10000 nM
